# Test system: K562 cells
# assay.name: K562 cell proliferation assay
# Format: cell-based
# applied.conditions: Homo sapiens; K562 (FIG. 16B); read-out: antiproliferative activity IC50
attribute.measured: pIC50
Notebook: values listed as pIC50 are -log10 of the concentration (mol/L).

Need pIC50, item Cc1ncsc1-c1ccc(CNC(=O)[C@@H]2C[C@@H](O)CN2C(=O)[C@@H](NC(=O)COCCNc2ncc(C(=O)Nc3ccc(OC(F)(F)Cl)cc3)cc2-c2ccn[nH]2)C(C)(C)C)cc1 [Compound 19]
6.77

meta.source: patent US20200297725A1
